Values from paper PMC7764284

# METHOD: Oral fluid concentration-time course of SCs and metabolites in consumers after smoking self-administration (GC-MS and UHPLC-HRMS)
# CONDITION LABEL: male, human, po, 1 mg, Cmax in OF, consumer smoked UR-144 1 mg, by GC-MS, at 20 min
ASSAY ENDPOINT: Cmax (ng/mL)

>  <COMPOUND SMILES>
CCCCCn1cc(C(=O)C2C(C)(C)C2(C)C)c2ccccc21

>  <MEASUREMENT>
7.4

$$$$

----------
# METHOD: Oral fluid concentration-time course of SCs and metabolites in consumers after smoking self-administration (GC-MS and UHPLC-HRMS)
# CONDITION LABEL: male, human, po, 1 mg, Cmax in OF, consumer smoked UR-144 1 mg, by UHPLC-HRMS, at 20 min

>  <COMPOUND SMILES>
CCCCCn1cc(C(=O)C2C(C)(C)C2(C)C)c2ccccc21

>  <Cmax [ng/mL]>
6.81

$$$$
